target: Cannabinoid receptor 1 (Homo sapiens, UniProt P21554); assay: Displacement of [3H]-CP55940 from human CB1 receptor transfected in HEK-293EBNA cells after 90 mins by luminescence counting analysis; format: cell-based
Sequence (P21554 whole entry): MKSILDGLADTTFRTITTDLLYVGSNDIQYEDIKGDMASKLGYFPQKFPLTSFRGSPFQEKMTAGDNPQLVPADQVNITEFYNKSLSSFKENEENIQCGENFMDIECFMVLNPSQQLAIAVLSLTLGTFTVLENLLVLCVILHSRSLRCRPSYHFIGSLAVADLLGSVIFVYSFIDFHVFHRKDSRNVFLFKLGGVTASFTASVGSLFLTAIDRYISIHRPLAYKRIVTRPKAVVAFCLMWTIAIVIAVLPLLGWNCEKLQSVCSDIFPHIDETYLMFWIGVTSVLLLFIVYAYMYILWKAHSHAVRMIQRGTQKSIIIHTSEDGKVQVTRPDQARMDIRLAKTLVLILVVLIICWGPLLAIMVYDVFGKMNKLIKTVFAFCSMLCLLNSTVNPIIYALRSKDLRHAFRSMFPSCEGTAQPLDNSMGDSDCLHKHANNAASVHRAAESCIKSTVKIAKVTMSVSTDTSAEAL
Collected Ki values appear next to each entry.
Enter your answer as a number in nM; do not include the unit.

                      smiles_representation                       experimental_system  observed_value
0  c1ccc2c(COc3nn(CCN4CCCC4)c4ccccc34)cccc2c1  Cannabinoid receptor 1 (Homo sapiens, UniProt P21554)             560

[Q] Provide Ki, system Cannabinoid receptor 1 (Homo sapiens, UniProt P21554), entry `COc1ccc(COc2nn(Cc3ccc(OC)cc3)c3ccccc23)cc1`
[A] 2400

[Q] Provide Ki, system Cannabinoid receptor 1 (Homo sapiens, UniProt P21554), entry `CCCCCn1nc(OCc2ccc(OC)cc2)c2cc([N+](=O)[O-])ccc21`
[A] 800

[Q] Provide Ki, system Cannabinoid receptor 1 (Homo sapiens, UniProt P21554), entry `c1ccc2c(c1)c(OCC1CCCCC1)nn2CC1CCCCC1`
[A] 200

----------
Collected pIC50 values appear next to each entry.
molecular target: Cholinesterase (Equus caballus); assay: Inhibition of horse serum BuChE using butyrylthiocholine as substrate by Ellman's method
Sequence (P81908 whole entry): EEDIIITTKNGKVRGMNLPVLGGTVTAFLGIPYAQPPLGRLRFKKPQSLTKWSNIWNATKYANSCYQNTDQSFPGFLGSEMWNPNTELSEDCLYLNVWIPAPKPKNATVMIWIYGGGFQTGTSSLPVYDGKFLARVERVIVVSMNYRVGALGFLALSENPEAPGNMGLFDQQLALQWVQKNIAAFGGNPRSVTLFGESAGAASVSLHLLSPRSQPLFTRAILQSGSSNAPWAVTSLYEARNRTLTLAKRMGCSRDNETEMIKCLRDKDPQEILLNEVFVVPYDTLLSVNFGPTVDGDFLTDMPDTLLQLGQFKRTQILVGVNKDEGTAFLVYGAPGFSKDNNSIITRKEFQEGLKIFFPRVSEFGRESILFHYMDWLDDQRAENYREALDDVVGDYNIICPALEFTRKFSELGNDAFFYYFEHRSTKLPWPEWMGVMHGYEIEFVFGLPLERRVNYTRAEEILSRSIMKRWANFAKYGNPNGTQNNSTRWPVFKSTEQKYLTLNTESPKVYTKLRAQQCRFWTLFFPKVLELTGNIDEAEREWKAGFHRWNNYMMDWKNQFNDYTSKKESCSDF
pIC50: −log10 of the molar value.

[Q] Consider the compound `c1ccc2c(c1)c(OCC1CCCCC1)nn2CC1CCCCC1` and give its recorded pIC50.
[A] < 5.00

[Q] Consider the compound `Nc1ccc2c(c1)c(OCc1ccc3ccccc3c1)nn2CCN1CCCCC1` and give its recorded pIC50.
[A] 5.82

[Q] Consider the compound `O=[N+]([O-])c1ccc2c(c1)c(OCC1CCCCC1)nn2Cc1ccccc1` and give its recorded pIC50.
[A] < 5.00

[Q] Consider the compound `O=[N+]([O-])c1ccc2c(c1)c(OCc1ccc3ccccc3c1)nn2Cc1ccccc1` and give its recorded pIC50.
[A] < 5.00

[Q] Consider the compound `CCCCCn1nc(OCc2ccc(OC)cc2)c2cc([N+](=O)[O-])ccc21` and give its recorded pIC50.
[A] < 5.00

[Q] Consider the compound `c1ccc2c(COc3nn(CCN4CCCCC4)c4ccccc34)cccc2c1` and give its recorded pIC50.
[A] 6.04

[Q] Consider the compound `O=[N+]([O-])c1ccc2c(c1)c(OCc1ccc3ccccc3c1)nn2CCN1CCOCC1` and give its recorded pIC50.
[A] < 5.00

[Q] Consider the compound `COc1ccc(COc2nn(Cc3ccc(OC)cc3)c3ccccc23)cc1` and give its recorded pIC50.
[A] < 5.00

[Q] Consider the compound `CCCCCOc1nn(CCCCC)c2ccc([N+](=O)[O-])cc12` and give its recorded pIC50.
[A] < 5.00

[Q] Consider the compound `CCCCCn1nc(OCc2ccc3ccccc3c2)c2cc([N+](=O)[O-])ccc21` and give its recorded pIC50.
[A] < 5.00

[Q] Consider the compound `O=[N+]([O-])c1ccc2c(c1)c(OCc1ccc3ccccc3c1)nn2Cc1ccc2ccccc2c1` and give its recorded pIC50.
[A] < 5.00

[Q] Consider the compound `c1ccc2cc(COc3nn(CCN4CCCCC4)c4ccccc34)ccc2c1` and give its recorded pIC50.
[A] 5.85

----------
target: Cannabinoid receptor 1 (Homo sapiens, UniProt P21554); assay: Displacement of [3H]-CP55940 from human CB1 receptor transfected in HEK-293EBNA cells after 90 mins by luminescence counting analysis
observed_property: Ki (µM)
Enter your answer as a number in µM; do not include the unit.

[Q] Consider the molecule `Brc1ccc2c(c1)c(OCc1ccc3ccccc3c1)nn2CCN1CCCCC1` and give its recorded Ki.
[A] 1.7

[Q] Consider the molecule `Nc1ccc2c(c1)c(OCc1ccccc1)nn2Cc1ccccc1` and give its recorded Ki.
[A] 4

[Q] Consider the molecule `O=[N+]([O-])c1ccc2c(c1)c(OCc1ccc3ccccc3c1)nn2CCN1CCCCC1` and give its recorded Ki.
[A] 1.3

[Q] Consider the molecule `O=[N+]([O-])c1ccc2c(c1)c(OCc1cccc3ccccc13)nn2Cc1cccc2ccccc12` and give its recorded Ki.
[A] 3.8

[Q] Consider the molecule `CCCCCn1nc(OCc2ccc3ccccc3c2)c2cc([N+](=O)[O-])ccc21` and give its recorded Ki.
[A] 1.6

[Q] Consider the molecule `c1ccc2c(COc3nn(CCN4CCCCC4)c4ccccc34)cccc2c1` and give its recorded Ki.
[A] 3

----------
Listed here: compounds with reported IC50 for Acetylcholinesterase (Homo sapiens).

[Q] Consider the compound `O=[N+]([O-])c1ccc2c(c1)c(OCc1ccccc1)nn2Cc1ccccc1` and give its recorded IC50.
[A] 7.3 µM

[Q] Consider the compound `c1ccc2cc(COc3nn(CCN4CCCCC4)c4ccccc34)ccc2c1` and give its recorded IC50.
[A] > 10 µM

[Q] Consider the compound `O=[N+]([O-])c1ccc2c(c1)c(OCc1ccc3ccccc3c1)nn2CCN1CCOCC1` and give its recorded IC50.
[A] > 10 µM

[Q] Consider the compound `O=[N+]([O-])c1ccc2c(c1)c(OCc1cccc3ccccc13)nn2CCN1CCCC1` and give its recorded IC50.
[A] > 25 µM

[Q] Consider the compound `CC(C)N(CCn1nc(OCc2cccc3ccccc23)c2ccccc21)C(C)C` and give its recorded IC50.
[A] > 10 µM

[Q] Consider the compound `c1ccc2c(COc3nn(CCN4CCCCC4)c4ccccc34)cccc2c1` and give its recorded IC50.
[A] > 10 µM

----------
molecular target: Cholinesterase (Homo sapiens, UniProt P06276); experiment: Noncompetitive inhibition of BuChE (unknown origin) using butyrylthiocholine as substrate by Lineweaver-Burk double reciprocal plot analysis
Sequence (P06276 whole entry): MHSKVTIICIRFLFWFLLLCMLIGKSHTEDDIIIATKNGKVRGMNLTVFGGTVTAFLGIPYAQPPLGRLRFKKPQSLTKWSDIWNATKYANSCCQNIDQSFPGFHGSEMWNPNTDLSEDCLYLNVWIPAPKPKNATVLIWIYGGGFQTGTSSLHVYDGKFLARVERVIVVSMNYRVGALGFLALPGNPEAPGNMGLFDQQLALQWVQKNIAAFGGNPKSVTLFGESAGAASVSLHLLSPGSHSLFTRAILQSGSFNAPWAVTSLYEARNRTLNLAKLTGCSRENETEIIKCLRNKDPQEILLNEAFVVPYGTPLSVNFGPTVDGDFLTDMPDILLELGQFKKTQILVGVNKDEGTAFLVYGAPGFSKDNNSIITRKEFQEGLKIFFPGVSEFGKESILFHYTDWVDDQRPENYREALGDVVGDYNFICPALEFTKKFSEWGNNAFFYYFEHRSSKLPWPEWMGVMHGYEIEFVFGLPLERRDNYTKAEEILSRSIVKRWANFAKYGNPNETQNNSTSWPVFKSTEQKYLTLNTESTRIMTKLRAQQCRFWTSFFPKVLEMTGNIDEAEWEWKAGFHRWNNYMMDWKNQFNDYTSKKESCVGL
observed_property: Ki (µM)
Enter your answer as a number in µM; do not include the unit.

>>> df
                      smiles_representation  result_unit  observed_value
0  COc1ccc(COc2nn(CCN(C(C)C)C(C)C)c3ccccc23)cc1           µM             2.6

[Q] Consider the compound `c1ccc2cc(COc3nn(CCN4CCCCC4)c4ccccc34)ccc2c1` and give its recorded Ki.
[A] 1.19

----------
molecular target: Cannabinoid receptor (Mus musculus) (UniProt P47746+P47936); experiment: Agonist activity at CB1/CB2 receptor in ICR mouse vas deferens assessed as inhibition of electrically induced contractile response at 2.7 X 10^-6 M after 10 mins in presence of AM251 and AM630
Sequence (P47746 whole entry, looked up): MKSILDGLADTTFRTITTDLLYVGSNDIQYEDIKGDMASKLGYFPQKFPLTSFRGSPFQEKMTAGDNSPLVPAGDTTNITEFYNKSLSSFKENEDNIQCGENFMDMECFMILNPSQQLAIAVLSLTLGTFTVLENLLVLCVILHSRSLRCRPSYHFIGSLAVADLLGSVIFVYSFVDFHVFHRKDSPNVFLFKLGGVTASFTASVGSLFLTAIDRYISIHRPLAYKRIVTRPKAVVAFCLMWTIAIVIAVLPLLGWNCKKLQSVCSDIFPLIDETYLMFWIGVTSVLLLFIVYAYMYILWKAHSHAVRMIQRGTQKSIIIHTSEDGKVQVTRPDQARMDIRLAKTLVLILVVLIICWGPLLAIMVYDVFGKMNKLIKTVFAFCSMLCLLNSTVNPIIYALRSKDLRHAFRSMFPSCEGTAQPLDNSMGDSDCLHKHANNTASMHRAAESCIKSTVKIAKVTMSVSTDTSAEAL
Sequence (P47936 whole entry, looked up): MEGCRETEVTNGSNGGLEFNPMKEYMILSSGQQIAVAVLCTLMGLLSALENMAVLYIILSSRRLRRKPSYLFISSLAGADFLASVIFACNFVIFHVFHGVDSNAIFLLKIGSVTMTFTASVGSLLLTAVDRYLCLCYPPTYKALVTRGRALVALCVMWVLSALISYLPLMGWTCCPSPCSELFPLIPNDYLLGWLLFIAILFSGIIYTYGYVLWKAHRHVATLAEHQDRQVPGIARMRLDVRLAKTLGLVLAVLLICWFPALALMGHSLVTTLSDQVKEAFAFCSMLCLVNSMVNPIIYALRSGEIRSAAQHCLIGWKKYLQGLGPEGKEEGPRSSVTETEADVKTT
Calls of active or inactive are those of the source. The calls are words filed in the database; no cut-off is given here.
Pick from active, inactive when you respond.

Please review the entries below; each comes with its answer.
>>> df
                      smiles_representation  class_label
0  COc1ccc(COc2nn(CCN(C(C)C)C(C)C)c3ccccc23)cc1     inactive
1  Nc1ccc2c(c1)c(OCc1cccc3ccccc13)nn2CCN1CCCC1       active

[Q] Call for entry `c1ccc2c(COc3nn(CCN4CCCC4)c4ccccc34)cccc2c1` :
[A] active

[Q] Call for entry `c1ccc2c(COc3nn(CCN4CCCCC4)c4ccccc34)cccc2c1` :
[A] active

[Q] Call for entry `Nc1ccc2c(c1)c(OCc1ccc3ccccc3c1)nn2CCN1CCCCC1` :
[A] inactive

[Q] Call for entry `c1ccc2cc(COc3nn(CCN4CCCCC4)c4ccccc34)ccc2c1` :
[A] inactive

----------
target: Cannabinoid receptor 1 (Mus musculus); assay: Agonist activity at CB1 receptor in ICR mouse vas deferens assessed as inhibition of electrically induced contractile response at 10^-7 to 2 X 10^-5 M after 10 mins
Activity calls are given as the source filed them. The calls are words filed in the database; no cut-off is given here.
observed_property: inhibition

Solved entries (count: 4):
                      smiles_representation                    experimental_system  observed_value
0  c1ccc2c(COc3nn(CCN4CCCC4)c4ccccc34)cccc2c1  Cannabinoid receptor 1 (Mus musculus)          Active
1  c1ccc2cc(COc3nn(CCN4CCCCC4)c4ccccc34)ccc2c1  Cannabinoid receptor 1 (Mus musculus)          Active
2  Nc1ccc2c(c1)c(OCc1ccc3ccccc3c1)nn2CCN1CCCCC1  Cannabinoid receptor 1 (Mus musculus)          Active
3  c1ccc2c(COc3nn(CCN4CCCCC4)c4ccccc34)cccc2c1  Cannabinoid receptor 1 (Mus musculus)          Active

[Q] Provide inhibition, system Cannabinoid receptor 1 (Mus musculus), entry `Nc1ccc2c(c1)c(OCc1cccc3ccccc13)nn2CCN1CCCC1`
[A] Active

[Q] Provide inhibition, system Cannabinoid receptor 1 (Mus musculus), entry `Cc1c(C(=O)c2cccc3ccccc23)c2cccc3c2n1[C@H](CN1CCOCC1)CO3`
[A] Active

----------
target: Cannabinoid receptor (Mus musculus) (UniProt P47746+P47936); assay: Agonist activity at CB1/CB2 receptor in ICR mouse vas deferens assessed as inhibition of electrically induced contractile response at 2.7 X 10^-6 M after 10 mins in presence of AM251
The source made the active and inactive calls. The calls are words filed in the database; no cut-off is given here.
Pick from active, inactive when you respond.

In [3]: df
Out[3]:
                      smiles_representation  class_label
0  Nc1ccc2c(c1)c(OCc1cccc3ccccc13)nn2CCN1CCCC1       active
1  COc1ccc(COc2nn(CCN(C(C)C)C(C)C)c3ccccc23)cc1     inactive

[Q] Call for entry `c1ccc2cc(COc3nn(CCN4CCCCC4)c4ccccc34)ccc2c1` :
[A] inactive

[Q] Call for entry `c1ccc2c(COc3nn(CCN4CCCC4)c4ccccc34)cccc2c1` :
[A] active

[Q] Call for entry `Nc1ccc2c(c1)c(OCc1ccc3ccccc3c1)nn2CCN1CCCCC1` :
[A] inactive

[Q] Call for entry `c1ccc2c(COc3nn(CCN4CCCCC4)c4ccccc34)cccc2c1` :
[A] active

# credit: ChEMBL document CHEMBL3112400
